Assay Method Text: growth suppression of beta-catenin knockout HCT116, pilot screen, human colon tumor cells (AID 823);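 also: 0% = wells killed by 20 µM Hyamine and 100% = untreated DMSO cell wells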
Stated Conditions: CellTiter-Glo, 60 h, at 10 µM, hits give low values
Results filed as inconclusive are left out.
# YES = viability below 90% (exclusive); NO = viability at/above 90%

Ask: Dear reviewer, please state whether COc1c(C)cccc1C(=O)Nc1cc(-c2nn3c(C)nnc3s2)ccc1C has viability strictly beneath 90%.
Reply: YES

Ask: Dear reviewer, please state whether COc1ccc(Cl)cc1C(=O)NCC(C)C has viability strictly beneath 90%.
Reply: NO

Ask: Dear reviewer, please state whether O=C(OCC(=O)N1CCN(C(=O)c2ccco2)CC1)c1sc2ccccc2c1Cl has viability strictly beneath 90%.
Reply: NO

Ask: Dear reviewer, please state whether COc1ccc(C(=O)c2coc3ccc(O)c(CN(C)C)c23)cc1 has viability strictly beneath 90%.
Reply: YES

Ask: Dear reviewer, please state whether Cc1cc(C)c2c(n1)SCC(=O)N2CC(=O)NCCC1=CCCCC1 has viability strictly beneath 90%.
Reply: NO

Ask: Dear reviewer, please state whether CCOc1ccc(OCC)c(NC(=O)C2CCCN2S(=O)(=O)c2cccc3cccnc23)c1 (stereo unspecified) has viability strictly beneath 90%.
Reply: YES

Ask: Dear reviewer, please state whether COc1ccccc1NC(=O)CSc1nc2ncccc2[nH]1 has viability strictly beneath 90%.
Reply: NO

Ask: Dear reviewer, please state whether O=C(Nc1ccc2c(c1)OCO2)C(c1ccccc1)N1CCCCC1 (stereo unspecified) has viability strictly beneath 90%.
Reply: YES

Ask: Dear reviewer, please state whether O=S(=O)(Nc1ccc2nc(C(F)(F)F)[nH]c2c1)c1ccccc1 has viability strictly beneath 90%.
Reply: YES

---

Assay Method Text: inhibitors of the yeast RAM network, pilot screen, dse1pr::URA3 reporter, 5-FOA selection (AID 869);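 also: 0% = DMSO wells with no growth and 100% = 10 µM 1-NA-PP1 with full growth; RAM network block rescues cells from 5-FOA so hits raise OD615 growth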
Stated Conditions: S. cerevisiae dse1pr::URA3 5-FOA growth, OD615, 2 d; at 10 µM; hits give high values; strain carries analog-sensitive mutant Cbk1 kinase
Endpoint Name: inhibition (%)
Your answer should be a plain number; it is taken to be in %.

Record excerpt, results attached:
{"columns": ["Compound", "inhibition [%]"],
 "data": [
  ["COc1cc(OC)nc(NC(=O)C(C)C)n1", 1.01],
  ["O=C(Nc1ccc(F)cc1)C1CCCN(S(=O)(=O)c2cccc3cccnc23)C1 (stereo unspecified)", 2.16],
  ["CCN(c1ccccc1)S(=O)(=O)c1ccc(N)cc1", 2.56]
]}

Ask: Given CCN1C(=O)CC(N2CCN(c3ccc(Cl)cc3)CC2)C1=O (stereo unspecified) , respond with its inhibition.
Reply: 1.04

Ask: Given Cc1cc(C)n(-c2nc3ccccc3nc2N2CCOCC2)n1 , respond with its inhibition.
Reply: 2.33

Ask: Given CC(C)Sc1oc(-c2ccco2)nc1S(=O)(=O)c1ccc(F)cc1 , respond with its inhibition.
Reply: 1.54

---

Each entry below carries its reported viability.
Assay Method Text: growth suppression of PTEN-deleted HCT116, pilot screen, cell-based, HCT116 clonal line, CellTiter-Glo (AID 824);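 also: 0% = 20 µM Hyamine control and 100% = vehicle cell control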
Stated Conditions: 60 h, at 10 µM, hits give low values
Results filed as inconclusive are left out.
Your answer should be a plain number; it is taken to be in %.

Record excerpt, results attached:
{"columns": ["Molecule", "Endpoint Name", "Assay Value"],
 "data": [
  ["COC(=O)CSc1nc2ccccc2o1", "viability", 96.3],
  ["CCOC(=O)C1=C(C)NC(=O)NC1c1cn(-c2ccccc2)nc1-c1cccs1 (stereo not drawn)", "viability", 72.2],
  ["Cn1c(Cn2c(=O)sc3ccccc32)nnc1SCC(=O)NCc1ccccc1", "viability", 102],
  ["CC1CCN(C(=O)C(Cc2ccccc2)NS(=O)(=O)c2ccc3c(c2)oc(=O)n3C)CC1 (stereo not drawn)", "viability", 94.1],
  ["COc1ccccc1N1CCN(C(=O)CN(c2ccccc2OC)S(=O)(=O)c2ccccc2)CC1", "viability", 83.9],
  ["O=C(O)c1cc(-c2ccc(Cl)cc2)n[nH]1", "viability", 96]
]}

Ask: Given CSc1ccc(C2C(C#N)=C(N)N(c3ccccc3)C3=C2C(=O)CCC3)cc1 (stereo not drawn) , respond with its viability.
Reply: 74.6

Ask: Given CCN1CCN(c2ncnc3c2sc2nc(N4CCOCC4)c4c(c23)CCC4)CC1 , respond with its viability.
Reply: 86.3

Ask: Given Cn1c(=O)c2cc(S(=O)(=O)NC(C(=O)NCc3cccnc3)c3ccccc3)ccc2n(C)c1=O (stereo not drawn) , respond with its viability.
Reply: 94.2

---

Assay Method Text: growth suppression of PTEN-deleted HCT116, pilot screen, cell-based, HCT116 clonal line, CellTiter-Glo (AID 824);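 also: 0% = 20 µM Hyamine control and 100% = vehicle cell control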
Stated Conditions: 60 h, at 10 µM, hits give low values
Records with an inconclusive call do not appear.
Each entry below carries its reported viability.
Your answer should be a plain number; it is taken to be in %.

{"columns": ["Compound", "Result Unit", "viability"],
 "data": [
  ["Brc1ccc(C2Nc3cccc4cccc(c34)N2)o1", "%", 92.5],
  ["COc1ccc(-n2ncc3c(N4CCCCC4)ncnc32)cc1", "%", 57.1],
  ["O=C(NCc1ccco1)c1cnccn1", "%", 101],
  ["CCN(CC)S(=O)(=O)c1ccc(NC2c3ccccc3C(=O)N2Cc2ccc3c(c2)OCO3)cc1 (stereo unspecified)", "%", 93],
  ["Cc1ccc(-c2nc(CS(=O)CC(=O)NCCCN3CC(C)CC(C)C3)c(C)o2)cc1 (stereo unspecified)", "%", 79.1]
]}

Turning now to a further compound:
Ask: Given O=S(=O)(c1ccc(N2CC=C(c3ccccc3)CC2)nc1)N1CCCC1 , respond with its viability.
Reply: 3.3

---

Each entry below carries its reported viability increase.
Assay Method Text: viability gain of MRP-1-high H69AR cells under doxorubicin, pilot screen, MRP-1 activator project, CellTiter-Glo, duplicate (AID 807);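 also: compound pretreatment 18-22 h then 72 h combined with doxorubicin; 0% = doxorubicin alone and 100% = vehicle without doxorubicin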
Stated Conditions: H69AR viability with doxorubicin, CellTiter-Glo luminescence; at 10 µM; hits give high values
Active and inactive are the calls of the source.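 The calls were made as follows: active = viability increase at or above a cutoff of the median across tested compounds plus 3 SD (cut at about 8.5% in these data, passing the limit was not always enough); inconclusive = some gains above the cutoff, reason not given; inactive = the rest.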

Ask: Given Cn1c(=O)oc2cc(S(=O)(=O)N3CCC(C(=O)N4CCN(c5ccccc5)CC4)CC3)ccc21 , respond with its viability increase.
Reply: -2.78% (inactive)

Ask: Given COc1ccc(-c2nnc(SCC(=O)NC3CCCCC3)o2)cc1OC , respond with its viability increase.
Reply: -2.07% (inactive)

---

Assay Method Text: RAM signaling pathway blockade in yeast – S. cerevisiae, Pdr1DBD-CYC8 efflux-inhibited sensitized strain, primary screen (AID 1298);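 also: 0% = DMSO untreated cells without growth and 100% = 10 µM 1-NA-PP1 full growth; higher means more yeast growth rescued from 5-FOA killing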
Stated Conditions: S. cerevisiae cbk1-as DSE1-URA3 strain, 5-FOA growth OD615, 2 d; at 50 µM; hits give high values
Each entry below carries its reported RAM network inhibition.
Your answer should be a plain number; it is taken to be in %.

{"columns": ["Compound", "Result Unit", "Assay Value"],
 "data": [
  ["CC1CCN(c2nc3ccccc3nc2C(C#N)S(=O)(=O)c2ccccc2)CC1 (stereo not drawn)", "%", 4.37],
  ["Cc1ccc(N2C(=O)c3ccccc3C2Nc2ccccc2F)nc1 (stereo not drawn)", "%", 10.5],
  ["OCCCc1nc2n(n1)C(c1cccs1)C=C(c1ccccc1)N2 (stereo not drawn)", "%", 3.92],
  ["O=C(Nc1nc2c(Cl)ccc(Cl)c2s1)c1ccco1", "%", 2.84],
  ["O=c1nc(-c2ccccc2)cn[nH]1", "%", 2.6]
]}

Ask: Given Cc1c(NC(=O)C2CCCN2S(=O)(=O)c2ccccc2)c(=O)n(-c2ccccc2)n1C (stereo not drawn) , respond with its RAM network inhibition.
Reply: 0.05

Ask: Given O=C(CSc1nc(-c2ccco2)cc(C(F)(F)F)n1)N1CCN(Cc2ccccc2)CC1 , respond with its RAM network inhibition.
Reply: 6.26

Ask: Given Cc1cc(C)cc(N(CC(=O)N2CCN(c3ccccc3)CC2)S(=O)(=O)c2c(C)noc2C)c1 , respond with its RAM network inhibition.
Reply: 6.09

Ask: Given CCOc1ccc(S(=O)(=O)N2CCN(S(=O)(=O)c3ccc(OCC)cc3)C(C)C2)cc1 (stereo not drawn) , respond with its RAM network inhibition.
Reply: 6.32

Ask: Given Clc1ccc(C2CC(c3cccs3)n3ncnc3N2)cc1Cl (stereo not drawn) , respond with its RAM network inhibition.
Reply: -1.53

Ask: Given O=C(CCS(=O)(=O)c1cccc2nonc12)NCCc1ccccc1 , respond with its RAM network inhibition.
Reply: 5.03

Ask: Given O=C(O)c1ccc(-n2cccc2)cc1O , respond with its RAM network inhibition.
Reply: -0.83

---

Each entry below carries its reported growth inhibition.
Assay Method Text: OD615 S. cerevisiae growth inhibition, permissive medium, pilot counter-assay, permissive growth control for S. cerevisiae lifespan shortening project (AID 705)
Stated Conditions: OD615, 24 h, at 10 µM, hits give high values
Your answer should be a plain number; it is taken to be in %.

Record excerpt, results attached:
{"columns": ["Compound", "growth inhibition, %"],
 "data": [
  ["CC1CCCN(c2nc3c(c(=O)[nH]c(=O)n3C)n2CCSc2ncccn2)C1 (stereo unspecified)", -2.51],
  ["O=C(C1CCN(S(=O)(=O)c2cccc3cccnc23)CC1)N1CCN(Cc2ccccc2)CC1", 8.83],
  ["COc1ccc(N2C(=O)C3CCCN3C2c2cc(OC)c(OC)cc2OC)cc1 (stereo unspecified)", 8.35],
  ["NC(=O)c1cc(S(=O)(=O)Nc2cccc(F)c2)co1", -17.4],
  ["Cc1nc2ccccc2c2oc(C(=O)NCc3ccc4c(c3)OCO4)cc12", -5.28]
]}

Ask: Given COc1ccc(-n2nc3cc(C)c(NC(=O)CC(C)C)cc3n2)cc1 , respond with its growth inhibition.
Reply: -7.39

Ask: Given CCCN1C(=O)c2cc(C(=O)NC3CCCC3)ccc2C1O (stereo unspecified) , respond with its growth inhibition.
Reply: -10.3

Ask: Given CCC(C)NC(=O)c1ccccc1NC(=O)CN1C(=O)c2ccccc2S1(=O)=O (stereo unspecified) , respond with its growth inhibition.
Reply: -17.3

Ask: Given CCOC(=O)c1nc2ccccc2s1 , respond with its growth inhibition.
Reply: -4.63

Ask: Given CCc1nc(N(CC)CC)c2oc3ccccc3c2n1 , respond with its growth inhibition.
Reply: -2.86

Ask: Given CCOc1ccccc1C1CC(c2ccccc2)Nc2nc(N)nn21 (stereo unspecified) , respond with its growth inhibition.
Reply: -1.36
